Target: T1, human sortilin stably expressed on HEK 293 cells (HEK-SORT1 cells) (human, UniProt Q99523 78-831)
T1 sequence (looked up): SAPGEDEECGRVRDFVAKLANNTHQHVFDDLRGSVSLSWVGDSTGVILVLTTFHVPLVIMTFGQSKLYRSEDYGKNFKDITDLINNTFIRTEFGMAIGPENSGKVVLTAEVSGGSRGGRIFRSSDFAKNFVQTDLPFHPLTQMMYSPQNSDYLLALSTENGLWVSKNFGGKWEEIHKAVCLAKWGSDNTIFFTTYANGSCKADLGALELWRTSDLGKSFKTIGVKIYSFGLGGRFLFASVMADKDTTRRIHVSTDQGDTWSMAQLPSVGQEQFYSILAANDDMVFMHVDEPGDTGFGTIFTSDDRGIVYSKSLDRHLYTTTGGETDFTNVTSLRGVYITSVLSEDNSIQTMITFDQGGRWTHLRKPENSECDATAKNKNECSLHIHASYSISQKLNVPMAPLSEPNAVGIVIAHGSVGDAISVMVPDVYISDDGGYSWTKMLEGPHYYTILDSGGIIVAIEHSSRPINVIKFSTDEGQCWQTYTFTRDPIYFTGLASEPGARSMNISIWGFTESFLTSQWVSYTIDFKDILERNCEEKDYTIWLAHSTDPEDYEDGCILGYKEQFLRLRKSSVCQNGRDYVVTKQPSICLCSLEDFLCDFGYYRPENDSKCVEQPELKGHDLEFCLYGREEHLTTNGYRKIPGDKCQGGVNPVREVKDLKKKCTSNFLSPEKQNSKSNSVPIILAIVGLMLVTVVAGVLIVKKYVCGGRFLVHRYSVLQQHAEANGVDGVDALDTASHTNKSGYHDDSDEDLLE
Experiment: cell-based or functional assay
Ends that are not written are not given here.
List of Mean Fluorescence Intensity (MFI), uptake 37C-4C, at 260 nM values.
// return numeric value only (unit: MFI, not printed)

binder	measurement units	recorded number
KAGMSGASAGLYENKPRRPYIL (not fully specified (residue 1); also: X side chain clicked via BCN (triazole) and 6-aminohexanol linker to 5' end of oligonucleotide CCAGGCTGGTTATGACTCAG (MOE, 3'-Cy3))	MFI	868

Let us examine a further case.
Q) So what does the record say about Mean Fluorescence Intensity (MFI), uptake 37C-4C, at 260 nM for KPAPSGPSPGLYENKPRRPYIL (not fully specified (residue 1); also: X side chain clicked via BCN (triazole) and 6-aminohexanol linker to 5' end of oligonucleotide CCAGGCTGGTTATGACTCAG (MOE, 3'-Cy3)) ?
A) 1230
